Test: small-molecule microarray binders of probe aEGFR, primary screen, biochemical, biotinylated probe, 635/667 nm fluorescence (AID 1097);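 also: probe is a biotinylated anti-EGFR antibody binding compounds printed on slides; score combines fluorescence near 667 nm and signal to noise of each spot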
Conditions: higher = more signal
metric-name: composite z-score
Lab note: record just the number, no unit beside it.

test-smiles: C=CCN1C(=O)[C@]2(O[C@H](CCO)[C@@H]([Si](C)(C)c3ccc(OC)cc3)[C@@H]2C)c2cc(N3C(=O)c4ccccc4Oc4ccccc43)ccc21
numeric-result: -0.115
//
test-smiles: COCCOC(=O)N1C(=O)[C@@]2(c3cc(C#CC4(O)CCCCCC4)ccc31)[C@H](C(N)=O)[C@H]1C(=O)O[C@H](c3ccccc3)[C@H](c3ccccc3)N1[C@@H]2c1ccc(OCCO)cc1
numeric-result: 0.104

Pending molecule:
Challenge: Dear colleague, I am looking for the recorded composite z-score of the following molecule: Cc1ccc(S(=O)(=O)N2[C@@H](c3ccccc3)C(C(=O)O)=CC[C@H]2c2ccc(F)cc2)cc1
Response given: -0.241
